Test system: Mus musculus
Experiment: Potentiation of yohimbine toxicity in ip dosed aggregated albino CF1 mouse
Type: organism-based
endpoint: ED50

Could I get ED50 for every one of these entries?
1. N#CCc1nnc2n1-c1ccc(Cl)cc1C(c1ccccc1)=NC2
2. OCCc1nnc2n1-c1ccc(Cl)cc1C(c1ccccc1)=NC2
3. Clc1ccccc1C1=NCc2nncn2-c2ccccc21
4. CN1CCN(c2nnc3n2-c2ccc(Br)cc2C(c2ccccn2)=NC3)CC1
5. CN(C)CCN(C)c1nnc2n1-c1ccc(Cl)cc1C(c1ccccc1)=NC2
6. OCCN1CCN(c2nnc3n2-c2ccccc2C(c2ccccc2Cl)=NC3)CC1
7. CN(C)CCCN1c2ccccc2CCc2ccccc21.Cl [IMIPRAMINE HYDROCHLORIDE]
8. Nc1nnc2n1-c1ccc(Cl)cc1C(c1ccccc1)=NC2

Result:
> 50 mg/kg
> 50 mg/kg
> 50 mg/kg
35.4 mg/kg
> 50 mg/kg
30 mg/kg
4 mg/kg
> 50 mg/kg

Batch lookup, ED50 per entry.
1. CN1CCN(c2nnc3n2-c2ccc(Cl)cc2C(c2ccccc2)=NC3)CC1
2. COCc1nnc2n1-c1ccc(Cl)cc1C(c1ccccc1)=NC2
3. CC1N=C(c2ccccc2)c2cc(Cl)ccc2-n2c1nnc2N1CCOCC1 (stereo not drawn)
4. Clc1ccccc1C1=NCc2nnc(N3CCOCC3)n2-c2ccccc21
5. OCc1nnc2n1-c1ccc(Cl)cc1C(c1ccccc1)=NC2
6. CC1N=C(c2ccccc2)c2cc(Cl)ccc2-n2c(Br)nnc21 (stereo not drawn)

Result:
1. > 50 mg/kg
2. > 50 mg/kg
3. 20 mg/kg
4. > 50 mg/kg
5. > 50 mg/kg
6. > 50 mg/kg

Count: 2. Required value per item: ED50.
1. CN1CCN(c2nnc3n2-c2ccccc2C(c2ccccc2Cl)=NC3)CC1
2. Sc1nnc2n1-c1ccc(Cl)cc1C(c1ccccc1)=NC2

Result:
> 25 mg/kg
> 50 mg/kg
